Tested on: Fer (mouse);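 also: 11-residue human phosphosite peptides and single-mutation variants displayed on the E. coli surface, counted by deep sequencing, each peptide's frequency after selection divided by its frequency in the unselected input library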;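 also: frequency after pTyr selection over input frequency; kinase dosed for 20-30% of maximal phosphorylation in three min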
Experiment: phosphorylation enrichment, bacterial display (enrichment ratio); higher = better substrate or ligand; peptides without Tyr show the background
Label rule, in plain words: phosphorylation enrichment of 0.7 and up is yes (1), under 0.7 is no (0).

Is it the case that LKALHYMAQTS [SACS_Y3367_V3369A] has phosphorylation enrichment reaching or exceeding 0.7? yes (1)

Similarly, PAEPRYRARQR [KCNJ11_Y26] ? no (0)

Similarly, EGGFAYVPLKD [PRIM2_Y208_D204G] ? no (0)

Similarly, KGPGEYVNIEF [IRS1_Y896_S892G] ? no (0)

Similarly, HYVYYYSYLLK [PTEN_Y178_R173H] ? yes (1)
